- EXPERIMENT NOTES: self-splicing fitness, log relative to wild type (ln ratio); higher = more splicing; Tetrahymena group I intron in knt gene, E. coli kanamycin selection, DiMSum; sequences stand for … in CUCUCU…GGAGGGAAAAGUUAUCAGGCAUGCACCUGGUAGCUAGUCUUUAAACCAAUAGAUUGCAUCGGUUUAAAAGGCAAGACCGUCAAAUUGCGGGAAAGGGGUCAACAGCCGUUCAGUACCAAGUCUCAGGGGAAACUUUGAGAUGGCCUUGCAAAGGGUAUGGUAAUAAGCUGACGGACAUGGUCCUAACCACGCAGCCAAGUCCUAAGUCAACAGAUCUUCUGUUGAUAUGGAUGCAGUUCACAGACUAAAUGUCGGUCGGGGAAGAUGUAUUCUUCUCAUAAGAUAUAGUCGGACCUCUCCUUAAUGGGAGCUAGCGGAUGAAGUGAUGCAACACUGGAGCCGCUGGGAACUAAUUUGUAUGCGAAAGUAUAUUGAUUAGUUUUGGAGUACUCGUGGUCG;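 note: selection with 25 µg/mL kanamycin versus none on LB agar overnight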
- SETUP CONDITIONS: 37 °C
Is self-splicing fitness (ln) at least -0.5? Then True. If not, False.

**Query** Is the recorded value of self-splicing fitness (ln) equal to or greater than -0.5 for this sequence? UGACAGCAAUAUUACGUGCU
**Result** False

**Query** Quick check, self-splicing fitness (ln) >= -0.5? GGUAAGCAAUAUUACGUUAU
**Result** False

**Query** Does the reported self-splicing fitness (ln) for GACUAGCAAUAUUACGAAUA fall at or above the -0.5 mark?
**Result** True

**Query** Assess whether reported self-splicing fitness (ln) for GCCCAGCAAUAUUACGACUU sits at -0.5 or higher.
**Result** False

**Query** Quick check: does UUAAAGCAAUAUUACGCCGC have self-splicing fitness (ln) greater than or equal to -0.5?
**Result** True

**Query** Is reported self-splicing fitness (ln) greater than or equal to -0.5 here: CCCGAGCAAUAUUACGGAGA
**Result** False

**Query** Determine whether this sequence has self-splicing fitness (ln) no lower than -0.5: AGCAAGCAAUAUUACGCGAU
**Result** True

**Query** Determine whether this sequence has self-splicing fitness (ln) no lower than -0.5: AAUAAGCAAUAUUACGGGAU
**Result** False

**Query** Say whether CACAAGCAAUAUUACGACUC shows self-splicing fitness (ln) of -0.5 or more.
**Result** False

**Query** Would you say GCCCAGCAAUAUUACGAGUC shows self-splicing fitness (ln) at minimum -0.5?
**Result** True

**Query** Has GGCGAGCAAUAUUACGAAGA a recorded self-splicing fitness (ln) greater than or equal to -0.5?
**Result** False

**Query** Is the recorded value of self-splicing fitness (ln) equal to or greater than -0.5 for this sequence? GAAUAGCAAUAUUACGGCGG
**Result** False

**Query** Kindly determine if self-splicing fitness (ln) recorded for UGAAAGCAAUAUUACGCAAA is above or exactly -0.5.
**Result** False

**Query** In plain terms: is recorded self-splicing fitness (ln) at least -0.5 for GGACAGCAAUAUUACGCUUU ?
**Result** False

**Query** # check: self-splicing fitness (ln) of UCGAAGCAAUAUUACGCCUG is greater than or equal to -0.5
**Result** True

**Query** Item UUGGAGCAAUAUUACGGGCA with self-splicing fitness (ln) of -0.5 or above?
**Result** False

**Query** Does the reported self-splicing fitness (ln) for AGAUAGCAAUAUUACGUUAA fall at or above the -0.5 mark?
**Result** False

**Query** Could you verify whether the entry CUUAAGCAAUAUUACGGUGC shows self-splicing fitness (ln) of no less than -0.5?
**Result** False

**Query** Item CAUGAGCAAUAUUACGAUAU with self-splicing fitness (ln) of -0.5 or above?
**Result** False

**Query** Hi, just wondering whether CAAGAGCAAUAUUACGGCAG shows self-splicing fitness (ln) of -0.5 or higher.
**Result** False

**Query** Does the reported self-splicing fitness (ln) for CGCCAGCAAUAUUACGCCCA fall at or above the -0.5 mark?
**Result** False

**Query** hey, is self-splicing fitness (ln) for this one >= -0.5? GAAAAGCAAUAUUACGUACA
**Result** True

**Query** For this sequence, is measured self-splicing fitness (ln) -0.5 or higher? GGUAAGCAAUAUUACGUCCG
**Result** True

**Query** hey, is self-splicing fitness (ln) for this one >= -0.5? ACCGAGCAAUAUUACGCGUG
**Result** False

**Query** Record GGGCAGCAAUAUUACGAGCG ; criterion: self-splicing fitness (ln) no lower than -0.5. Met?
**Result** True

* * *

Would you mind telling me the reported self-splicing fitness (ln) of each entry?
- EXPERIMENT NOTES: self-splicing fitness, log relative to wild type (ln ratio); higher = more splicing; Tetrahymena group I intron in knt gene, E. coli kanamycin selection, DiMSum; sequences stand for … in CUCUCU…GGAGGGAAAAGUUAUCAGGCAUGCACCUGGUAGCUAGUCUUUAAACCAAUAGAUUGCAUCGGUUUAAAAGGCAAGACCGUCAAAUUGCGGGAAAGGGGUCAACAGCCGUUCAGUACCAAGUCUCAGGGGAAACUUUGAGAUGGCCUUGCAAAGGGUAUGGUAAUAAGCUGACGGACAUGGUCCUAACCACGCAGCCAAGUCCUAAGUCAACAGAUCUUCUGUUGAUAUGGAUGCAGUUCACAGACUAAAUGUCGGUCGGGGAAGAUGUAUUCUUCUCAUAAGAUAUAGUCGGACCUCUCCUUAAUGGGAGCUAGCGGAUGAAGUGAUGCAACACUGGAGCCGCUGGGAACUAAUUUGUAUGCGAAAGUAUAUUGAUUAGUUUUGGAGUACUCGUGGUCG
- SETUP CONDITIONS: 37 °C
Provide a numeric answer; units are not to be included.

**Query** Quick check: self-splicing fitness (ln) of UUACAGCAAUAUUACGGCCU ?
**Result** -1.23

**Query** // query self-splicing fitness (ln) value for entry AUCCAGCAAUAUUACGGAUU
**Result** -2.83

**Query** # input sequence: GAUAAGCAAUAUUACGUAGG ; wanted: its self-splicing fitness (ln)
**Result** -1.86

**Query** Reported self-splicing fitness (ln), sequence GUAAAGCAAUAUUACGCGUU : ____
**Result** -0.906

**Query** Give its self-splicing fitness (ln) value. Item: CAGCAGCAAUAUUACGUCUG
**Result** -2.85

**Query** // lookup self-splicing fitness (ln) for GAGUAGCAAUAUUACGGGGG
**Result** -3.08

**Query** Quick check: self-splicing fitness (ln) of ACAAAGCAAUAUUACGCGCA ?
**Result** -0.569

**Query** If you can, please state the reported self-splicing fitness (ln) value of GUGCAGCAAUAUUACGUUAU .
**Result** -0.973

**Query** Please give the measured self-splicing fitness (ln) for this sequence: UCAGAGCAAUAUUACGGCGA
**Result** -0.417

**Query** # query: self-splicing fitness (ln) of entry CGGGAGCAAUAUUACGCCAC
**Result** -2.63

**Query** Param item = UCGGAGCAAUAUUACGACGG ; retrieve measured self-splicing fitness (ln).
**Result** -1.36

**Query** May I ask what self-splicing fitness (ln) has been recorded for CUGCAGCAAUAUUACGGACC ?
**Result** -2.18

**Query** # get_value(readout='self-splicing fitness (ln)', item= AUGCAGCAAUAUUACGUCAA )
**Result** -0.997

**Query** Reported self-splicing fitness (ln), sequence UCUCAGCAAUAUUACGCUAC : ____
**Result** -2.14

**Query** Find the recorded self-splicing fitness (ln) belonging to GCGUAGCAAUAUUACGGCGA and report it.
**Result** 0.378

**Query** Give the measured self-splicing fitness (ln) of GGUGAGCAAUAUUACGGUAA .
**Result** -2.66

**Query** For the sequence shown here, CUCAAGCAAUAUUACGCUCG , give the reported self-splicing fitness (ln).
**Result** -0.979

**Query** What measured self-splicing fitness (ln) goes with CUCUAGCAAUAUUACGCGGG ?
**Result** -1.41

**Query** So what's the measured self-splicing fitness (ln) for this one? AUGCAGCAAUAUUACGACGG
**Result** -1.41

**Query** I'd like to know its self-splicing fitness (ln). The sequence in question is UGCUAGCAAUAUUACGCACU
**Result** -1.11

**Query** Fill in: self-splicing fitness (ln) of AAUUAGCAAUAUUACGGGAG is ___
**Result** -2.17

**Query** Entry under review: UUGUAGCAAUAUUACGUCUU . Reported self-splicing fitness (ln)?
**Result** -0.491

**Query** // self-splicing fitness (ln) lookup, key: GCAGAGCAAUAUUACGGUGU
**Result** -2.31

**Query** Consider the sequence GCUAAGCAAUAUUACGGUAC and give its measured self-splicing fitness (ln).
**Result** -1.65

**Query** Given the entry UUUUAGCAAUAUUACGGUCG , report its measured self-splicing fitness (ln).
**Result** -0.345

**Query** State the recorded self-splicing fitness (ln) for this entry: ACUCAGCAAUAUUACGCAGA
**Result** -2.55

**Query** What does the record list as self-splicing fitness (ln) for ACACAGCAAUAUUACGAUGC ?
**Result** -0.965

**Query** Look at this sequence and give its reported self-splicing fitness (ln). UUGGAGCAAUAUUACGUGAA
**Result** -1.27

**Query** # input sequence: CGGUAGCAAUAUUACGGCCU ; wanted: its self-splicing fitness (ln)
**Result** -0.911

**Query** Reported self-splicing fitness (ln) for GUCGAGCAAUAUUACGCUGU : what is it?
**Result** -1.62

**Query** Reported self-splicing fitness (ln), sequence GAGAAGCAAUAUUACGGACU : ____
**Result** -0.101

**Query** Query (sequence): CGUAAGCAAUAUUACGACCG ; field requested: self-splicing fitness (ln)
**Result** -0.46

**Query** Given CGCGAGCAAUAUUACGGUCA , state its recorded self-splicing fitness (ln).
**Result** -1.63

**Query** Field request: self-splicing fitness (ln) | item: GCUUAGCAAUAUUACGUAAA
**Result** 0.317

**Query** Which self-splicing fitness (ln) value is on record for CCUUAGCAAUAUUACGUGCA ?
**Result** -3.76

**Query** Consider the sequence shown here: UACAAGCAAUAUUACGAACA What is its recorded self-splicing fitness (ln)?
**Result** -0.734

**Query** Entry GCAAAGCAAUAUUACGGUGC : reported self-splicing fitness (ln) = ?
**Result** -3.66

**Query** What does the record list as self-splicing fitness (ln) for AGAUAGCAAUAUUACGGUAC ?
**Result** -2.42

**Query** Looking for the measured self-splicing fitness (ln) of AGGAAGCAAUAUUACGUGGU , can you help?
**Result** -2.61

**Query** What does the record list as self-splicing fitness (ln) for AUGUAGCAAUAUUACGAGUG ?
**Result** -2.72

**Query** I would be grateful if you could share the reported self-splicing fitness (ln) for GCCUAGCAAUAUUACGGGCC .
**Result** -3.41

**Query** # query: self-splicing fitness (ln) of entry UAGUAGCAAUAUUACGGCGA
**Result** -0.54

**Query** Could you tell me which self-splicing fitness (ln) is on file for CUGUAGCAAUAUUACGACUU ?
**Result** -1.36

**Query** Suppose we examine the sequence GGGCAGCAAUAUUACGAACU ; what self-splicing fitness (ln) value has been reported?
**Result** -0.278

**Query** Which self-splicing fitness (ln) reading was recorded for the sequence AACAAGCAAUAUUACGAGAU ?
**Result** -1.62

**Query** So what's the measured self-splicing fitness (ln) for this one? UUCCAGCAAUAUUACGCAUC
**Result** -2.2

**Query** Suppose we examine the sequence CUGAAGCAAUAUUACGCUCU ; what self-splicing fitness (ln) value has been reported?
**Result** -3.3

**Query** Looking for the measured self-splicing fitness (ln) of AGCGAGCAAUAUUACGCUGG , can you help?
**Result** -3.38

**Query** For the sequence ACCCAGCAAUAUUACGUGAU , what self-splicing fitness (ln) is on record?
**Result** 0.181

**Query** Reported self-splicing fitness (ln), sequence UUUCAGCAAUAUUACGACGA : ____
**Result** 0.236

**Query** Look at this sequence and give its reported self-splicing fitness (ln). CCCCAGCAAUAUUACGUGGU
**Result** -2.98

**Query** Tell me the measured self-splicing fitness (ln) of AUUCAGCAAUAUUACGCCUC , please.
**Result** 0.286

**Query** Which value of self-splicing fitness (ln) has been reported for AAUGAGCAAUAUUACGGCGA in the records?
**Result** -0.446

**Query** Dear colleague, I am looking for the recorded self-splicing fitness (ln) of the following sequence: CGAAAGCAAUAUUACGGCGC
**Result** -0.908

**Query** # query: self-splicing fitness (ln) of entry CACAAGCAAUAUUACGAAUU
**Result** -2.75

**Query** What does the data say about its self-splicing fitness (ln)? Entry: AAGAAGCAAUAUUACGCUCU
**Result** -1.37

**Query** For the sequence GCUAAGCAAUAUUACGAAGG , what self-splicing fitness (ln) is on record?
**Result** -0.743

**Query** Give the measured self-splicing fitness (ln) of GUUCAGCAAUAUUACGUGGG .
**Result** -1.92

**Query** Param item = GUACAGCAAUAUUACGAUUU ; retrieve measured self-splicing fitness (ln).
**Result** -0.49

**Query** Any idea what self-splicing fitness (ln) was measured for AACAAGCAAUAUUACGUUAA ?
**Result** -1.67

**Query** Returns the measured self-splicing fitness (ln) for the input sequence. Input: CUAGAGCAAUAUUACGUAUG
**Result** 0.333
